System: Streptococcus pneumoniae
Assay: Antimicrobial activity against drug-resistant Streptococcus pneumoniae isolate 3274 after 50 passages by multi-step resistance selection technique
Assay type: functional
measured_property: MIC (mg/L)
Response body: numeric value in mg/L, unit text excluded.

Form field: reported MIC of CO/N=C(\C(=O)N[C@@H]1C(=O)N2C(C(=O)O)=C(CSc3nc(=O)c(O)nn3C)CS[C@H]12)c1csc(N)n1
0.25

C[C@@H](O)[C@H]1C(=O)N2C(C(=O)O)=C(SCCNC=N)C[C@H]12 [IMIPENEM ANHYDROUS] , same question.
0.03

CC[C@H]1OC(=O)[C@H](C)[C@@H](O[C@H]2C[C@@](C)(OC)[C@@H](O)[C@H](C)O2)[C@H](C)[C@@H](O[C@@H]2O[C@H](C)C[C@H](N(C)C)[C@H]2O)[C@](C)(OC)C[C@@H](C)C(=O)[C@H](C)[C@@H](O)[C@]1(C)O , same question.
0.03

CC[C@H]1OC(=O)[C@H](C)[C@@H](O[C@H]2C[C@@](C)(OC)[C@@H](O)[C@H](C)O2)[C@H](C)[C@@H](O[C@@H]2O[C@H](C)C[C@H](N(C)C)[C@H]2O)[C@](C)(O)C[C@@H](C)CN(C)[C@H](C)[C@@H](O)[C@]1(C)O , same question.
0.008

###

Measured MIC, listed per entry.
Test system: Streptococcus pneumoniae
Experiment: Antimicrobial activity against drug-resistant Streptococcus pneumoniae isolate 1077 after 29 passages with azithromycin measured after 10 antibiotic-free subculture by multi-step resistance selection technique
Format: functional

Example compounds with recorded MIC:
compound | study_system | MIC
CCC[C@@H]1C[C@@H](C(=O)N[C@@H]([C@H]2O[C@H](SC)[C@H](O)[C@@H](O)[C@H]2O)[C@H](C)Cl)N(C)C1 | Streptococcus pneumoniae | 4 µg/mL
CC[C@H]1OC(=O)[C@H](C)[C@@H](O[C@H]2C[C@@](C)(OC)[C@@H](O)[C@H](C)O2)[C@H](C)[C@@H](O[C@@H]2O[C@H](C)C[C@H](N(C)C)[C@H]2O)[C@](C)(OC)C[C@@H](C)C(=O)[C@H](C)[C@@H](O)[C@]1(C)O | Streptococcus pneumoniae | > 64 µg/mL

Form field: reported MIC of C[C@@H](O)[C@H]1C(=O)N2C(C(=O)O)=C(SCCNC=N)C[C@H]12 [IMIPENEM ANHYDROUS]
0.008 µg/mL

CO/N=C(\C(=O)N[C@@H]1C(=O)N2C(C(=O)O)=C(CSc3nc(=O)c(O)nn3C)CS[C@H]12)c1csc(N)n1 , same question.
0.03 µg/mL

CN(C)c1cc(NC(=O)CNC(C)(C)C)c(O)c2c1C[C@H]1C[C@H]3[C@H](N(C)C)C(O)=C(C(N)=O)C(=O)[C@@]3(O)C(O)=C1C2=O , same question.
0.03 µg/mL

###

Measured MIC, listed per entry.
Test system: Streptococcus pneumoniae
Assay: Antimicrobial activity against drug-resistant Streptococcus pneumoniae isolate 3009 by NCCLS M7-A7 method
Format: functional
Response body: numeric value in µg/mL, unit text excluded.

compound | MIC / µg/mL
C[C@@H](O)[C@H]1C(=O)N2C(C(=O)O)=C(SCCNC=N)C[C@H]12 [IMIPENEM ANHYDROUS] | 0.008

Form field: reported MIC of CC[C@H]1OC(=O)[C@H](C)[C@@H](O[C@H]2C[C@@](C)(OC)[C@@H](O)[C@H](C)O2)[C@H](C)[C@@H](O[C@@H]2O[C@H](C)C[C@H](N(C)C)[C@H]2O)[C@](C)(OC)C[C@@H](C)C(=O)[C@H](C)[C@@H](O)[C@]1(C)O
16

CCC[C@@H]1C[C@@H](C(=O)N[C@@H]([C@H]2O[C@H](SC)[C@H](O)[C@@H](O)[C@H]2O)[C@H](C)Cl)N(C)C1 , same question.
1

###

Tested on: Streptococcus pneumoniae
Test: Antimicrobial activity against drug-resistant Streptococcus pneumoniae isolate 3009 after 18 passages with levofloxacin measured after 10 antibiotic-free subculture by multi-step resistance selection technique
Type: functional
measured_property: MIC (µg/mL)
Response body: numeric value in µg/mL, unit text excluded.

Example molecules with recorded MIC:
molecule | measured_property | assay_result
CO/N=C(\C(=O)N[C@@H]1C(=O)N2C(C(=O)O)=C(CSc3nc(=O)c(O)nn3C)CS[C@H]12)c1csc(N)n1 [CEFTRIAXONE] | MIC | 0.016
CN(C)c1cc(NC(=O)CNC(C)(C)C)c(O)c2c1C[C@H]1C[C@H]3[C@H](N(C)C)C(O)=C(C(N)=O)C(=O)[C@@]3(O)C(O)=C1C2=O [TIGECYCLINE] | MIC | 0.06
CO/N=C1\CN(c2nc3c(cc2F)c(=O)c(C(=O)O)cn3C2CC2)CC1CN (configuration not stated) [GEMIFLOXACIN] | MIC | 1
CCC[C@@H]1C[C@@H](C(=O)N[C@@H]([C@H]2O[C@H](SC)[C@H](O)[C@@H](O)[C@H]2O)[C@H](C)Cl)N(C)C1 [CLINDAMYCIN] | MIC | 0.5
CC[C@H]1OC(=O)[C@H](C)C(=O)[C@H](C)[C@@H](O[C@@H]2O[C@H](C)C[C@H](N(C)C)[C@H]2O)[C@](C)(OC)C[C@@H](C)C(=O)[C@H](C)[C@H]2N(CCCCn3cnc(-c4cccnc4)c3)C(=O)O[C@]12C [TELITHROMYCIN] | MIC | 0.016

In the following, a different molecule is considered.
Form field: reported MIC of CC[C@H]1OC(=O)[C@H](C)[C@@H](O[C@H]2C[C@@](C)(OC)[C@@H](O)[C@H](C)O2)[C@H](C)[C@@H](O[C@@H]2O[C@H](C)C[C@H](N(C)C)[C@H]2O)[C@](C)(OC)C[C@@H](C)C(=O)[C@H](C)[C@@H](O)[C@]1(C)O [CLARITHROMYCIN]
8

###

Tested on: Streptococcus pneumoniae
Assay: Antimicrobial activity against drug-resistant Streptococcus pneumoniae isolate 1635 by NCCLS M7-A7 method
Type: functional
# note: exactly 0.02 µg/mL is not below, so it is No; use Yes for MIC strictly under it

compound | class_assignment
C[C@@H](O)[C@H]1C(=O)N2C(C(=O)O)=C(SCCNC=N)C[C@H]12 [IMIPENEM ANHYDROUS] | Yes

Field: below-cutoff. Rule: recorded MIC strictly less than 0.02 µg/mL. Subject: CN(C)c1cc(NC(=O)CNC(C)(C)C)c(O)c2c1C[C@H]1C[C@H]3[C@H](N(C)C)C(O)=C(C(N)=O)C(=O)[C@@]3(O)C(O)=C1C2=O
Yes

CO/N=C(\C(=O)N[C@@H]1C(=O)N2C(C(=O)O)=C(CSc3nc(=O)c(O)nn3C)CS[C@H]12)c1csc(N)n1 , same question.
Yes

CC[C@H]1OC(=O)[C@H](C)[C@@H](O[C@H]2C[C@@](C)(OC)[C@@H](O)[C@H](C)O2)[C@H](C)[C@@H](O[C@@H]2O[C@H](C)C[C@H](N(C)C)[C@H]2O)[C@](C)(O)C[C@@H](C)CN(C)[C@H](C)[C@@H](O)[C@]1(C)O , same question.
No

CO/N=C1\CN(c2nc3c(cc2F)c(=O)c(C(=O)O)cn3C2CC2)CC1CN (stereo not drawn) , same question.
Yes

CC[C@H]1OC(=O)[C@H](C)C(=O)[C@H](C)[C@@H](O[C@@H]2O[C@H](C)C[C@H](N(C)C)[C@H]2O)[C@](C)(OC)C[C@@H](C)C(=O)[C@H](C)[C@H]2N(CCCCn3cnc(-c4cccnc4)c3)C(=O)O[C@]12C , same question.
Yes

CC[C@H]1OC(=O)[C@H](C)[C@@H](O[C@H]2C[C@@](C)(OC)[C@@H](O)[C@H](C)O2)[C@H](C)[C@@H](O[C@@H]2O[C@H](C)C[C@H](N(C)C)[C@H]2O)[C@](C)(OC)C[C@@H](C)C(=O)[C@H](C)[C@@H](O)[C@]1(C)O , same question.
No

CCC[C@@H]1C[C@@H](C(=O)N[C@@H]([C@H]2O[C@H](SC)[C@H](O)[C@@H](O)[C@H]2O)[C@H](C)Cl)N(C)C1 , same question.
No

###

Test system: Streptococcus pneumoniae
Assay: Antimicrobial activity against drug-resistant Streptococcus pneumoniae isolate 24 after 14 passages with Telithromycin measured after 10 antibiotic-free subculture by multi-step resistance selection technique
Format: functional
Measured MIC, listed per entry.
Response body: numeric value in µg/mL, unit text excluded.

compound | MIC (µg/mL)
CC[C@H]1OC(=O)[C@H](C)C(=O)[C@H](C)[C@@H](O[C@@H]2O[C@H](C)C[C@H](N(C)C)[C@H]2O)[C@](C)(OC)C[C@@H](C)C(=O)[C@H](C)[C@H]2N(CCCCn3cnc(-c4cccnc4)c3)C(=O)O[C@]12C [TELITHROMYCIN] | 16
CO/N=C1\CN(c2nc3c(cc2F)c(=O)c(C(=O)O)cn3C2CC2)CC1CN (stereo not given) [GEMIFLOXACIN] | 0.016

In the following, a different compound is considered.
Form field: reported MIC of C[C@@H](O)[C@H]1C(=O)N2C(C(=O)O)=C(SCCNC=N)C[C@H]12 [IMIPENEM ANHYDROUS]
0.25
